Biological target: Thromboxane A2 receptor (Homo sapiens); further: assay procedure not described here
Sequence (P21731 whole entry): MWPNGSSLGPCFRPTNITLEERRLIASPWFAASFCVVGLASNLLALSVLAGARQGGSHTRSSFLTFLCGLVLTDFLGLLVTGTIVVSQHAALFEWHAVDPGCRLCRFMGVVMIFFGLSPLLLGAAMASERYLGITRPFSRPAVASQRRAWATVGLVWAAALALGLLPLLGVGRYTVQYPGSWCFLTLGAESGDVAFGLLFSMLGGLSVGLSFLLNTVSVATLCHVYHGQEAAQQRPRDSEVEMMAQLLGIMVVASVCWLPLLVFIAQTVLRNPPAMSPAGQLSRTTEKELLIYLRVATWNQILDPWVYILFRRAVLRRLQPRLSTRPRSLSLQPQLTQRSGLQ
Assay type: functional, cell-based
Quick list: AC50 per entry.

Worked cases, answers included:
O=C1Nc2ccccc2C1(c1ccc(O)cc1)c1ccc(O)cc1	> 30 µM
CC(C)(Oc1ccc(C(=O)c2ccc(Cl)cc2)cc1)C(=O)O	> 30 µM
CC(=O)Oc1ccccc1C(=O)O	> 30 µM
CC(C)Nc1cccnc1N1CCN(C(=O)c2cc3cc(NS(C)(=O)=O)ccc3[nH]2)CC1	23.2 µM

stdin: Value wanted: AC50 (Thromboxane A2 receptor (Homo sapiens)) of entry `O=C(Cc1cccs1)N[C@@H]1C(=O)N2C(C(=O)[O-])=C(C[n+]3ccccc3)CS[C@H]12`
stdout: > 30 µM

stdin: Now consider `CC1=C(C/C=C(\C)CCC[C@H](C)CCC[C@H](C)CCCC(C)C)C(=O)c2ccccc2C1=O` .
stdout: > 30 µM
